Items are presented alongside their recorded melting point.

Which melting point value belongs to CS(=O)(=O)c1ccc(/C(=C\C2CCCC2)C(=O)Nc2ncc(Br)s2)cc1 [Example 7] ?
202 to 205 °C

Continue with CS(=O)(=O)c1ccc(/C(=C\CC2CCCC2)C(=O)Nc2nccs2)cc1 [Example 21]
173 to 176 °C

Consider next the compound CS(=O)(=O)c1ccc(/C(=C\C2CCCC2)C(=O)Nc2nccs2)cc1 [Example 3] in the same way.
172 to 173 °C

How about COC(=O)c1csc(NC(=O)/C(=C/CC2CCCC2)c2ccc(S(C)(=O)=O)cc2)n1 [Example 22] ?
85 to 90 °C

Then this compound: O=C(Nc1nccs1)/C(=C/C1CCCC1)c1ccc(Cl)c(Cl)c1 [Example 8]
57 to 59 °C

Request: CNC(=O)NC(=O)/C(=C/C(C)C)c1ccc(Cl)c(Cl)c1 [Example 26]
177 to 178 °C

###

Known melting point of a selection of compounds

CNC(=O)NC(=O)/C(=C/C1CCCCC1)c1ccc(S(C)(=O)=O)c(C(F)(F)F)c1 [Example 27]: 199 to 202 °C

Bench note: what melting point did CS(=O)(=O)c1ccc(/C(=C\C2CCCCCC2)C(=O)Nc2ncc(Br)s2)cc1 [Example 16] show?
159 to 163 °C

Next: CC/C=C(/C(=O)Nc1nccs1)c1ccc(S(C)(=O)=O)cc1 [Example 1]
155 to 158 °C

Continue with CS(=O)(=O)c1ccc(/C(=C\C2CCCCCC2)C(=O)Nc2nccs2)cc1 [Example 5]
163 to 165 °C
